The values you see were collected from patent US20220073496A1.

- method-description: Rat PK evaluation
- Assay type: in vivo
- assay-conditions: rat, plasma; SD rats, PO 5 mg/kg, n = 3; read-out: AUClast po (area under the drug-time curve from 0 to 48 hours)
Classification field: 1 (yes) = AUC(0-t) at or over 90000 ng·h/mL; 0 (no) = AUC(0-t) under 90000 ng·h/mL.

Threshold query (AUC(0-t) >= 90000 ng·h/mL) on COc1cc2nccc(Oc3ccc(NC(=O)c4cn(C(C)C)cc(-c5ccc(F)cc5)c4=O)nc3)c2cc1OC [Compound 14]
1 (yes)

----------
- method-description: Stability in liver microsome of mice
- Format: in vitro ADME
- assay-conditions: liver microsomes; Mouse liver microsome 0.5 mg protein/mL, compound 1 μM, 37° C.
quantity-name: half-life at 1 μM (h)
State the answer as a number, implicitly in h.

// worked examples, half-life at 1 μM included
>  <molecular-string>
COc1cc2nccc(Oc3ccc(NC(=O)c4cn(C5CC5)cc(-c5ccc(F)cc5)c4=O)nc3)c2cc1OC

>  <half-life at 1 μM, h>
0.888

$$$$
>  <molecular-string>
COc1cc2nccc(Oc3ccc(NC(=O)c4nn(C(C)C)cc(-c5ccc(F)cc5)c4=O)cn3)c2cc1OC

>  <half-life at 1 μM, h>
3.22

$$$$
>  <molecular-string>
COc1cc2nccc(Oc3ccc(NC(=O)c4cn(C(C)C)cc(-c5ccc(F)cc5)c4=O)nc3)c2cc1OC

>  <half-life at 1 μM, h>
3.12

$$$$

Please find the next compound below.
The reported half-life at 1 μM of the compound COc1cc2nccc(Oc3cnc(NC(=O)c4cn(C5CC5)nc(-c5ccc(F)cc5)c4=O)nc3)c2cc1OC was 3.3

----------
Target protein (sequence): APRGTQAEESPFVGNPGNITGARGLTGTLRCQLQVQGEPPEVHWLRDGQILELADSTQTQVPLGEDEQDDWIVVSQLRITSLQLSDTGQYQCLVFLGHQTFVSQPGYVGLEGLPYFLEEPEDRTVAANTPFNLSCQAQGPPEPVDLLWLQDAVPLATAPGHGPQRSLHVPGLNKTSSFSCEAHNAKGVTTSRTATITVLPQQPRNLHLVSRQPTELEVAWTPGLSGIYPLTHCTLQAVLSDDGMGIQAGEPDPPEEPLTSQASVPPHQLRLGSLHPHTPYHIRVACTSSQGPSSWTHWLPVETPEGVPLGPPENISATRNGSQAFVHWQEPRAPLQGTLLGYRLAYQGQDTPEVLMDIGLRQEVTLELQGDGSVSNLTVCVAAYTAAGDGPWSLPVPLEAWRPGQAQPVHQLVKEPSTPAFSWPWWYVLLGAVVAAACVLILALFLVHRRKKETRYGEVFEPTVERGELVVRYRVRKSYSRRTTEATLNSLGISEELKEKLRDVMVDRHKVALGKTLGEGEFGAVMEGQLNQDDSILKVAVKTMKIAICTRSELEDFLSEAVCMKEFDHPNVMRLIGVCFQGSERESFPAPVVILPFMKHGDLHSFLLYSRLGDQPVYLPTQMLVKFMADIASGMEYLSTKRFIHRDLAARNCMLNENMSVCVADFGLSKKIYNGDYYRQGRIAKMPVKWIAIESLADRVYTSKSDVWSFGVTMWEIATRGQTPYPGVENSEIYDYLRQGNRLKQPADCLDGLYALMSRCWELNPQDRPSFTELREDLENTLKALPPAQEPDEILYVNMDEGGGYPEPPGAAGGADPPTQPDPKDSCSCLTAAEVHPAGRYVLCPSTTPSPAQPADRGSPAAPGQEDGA
quantity-name: pIC50
# pIC50 is unitless: minus log10 of the molar concentration; print number only

The reported pIC50 of the compound COc1cc2nccc(Oc3ccc(NC(=O)c4nn(C5CC5)cc(-c5ccc(F)cc5)c4=O)cn3)c2cc1OC was 8.52

The reported pIC50 of the compound COc1cc2nccc(Oc3ccc(NC(=O)c4nn(C5CC5)cc(-c5ccc(F)cc5)c4=O)nc3)c2cc1OC was 8.40

----------
The reader will find reported Vz_obs iv (apparent distribution volume) values listed item by item below.
- method-description: Rat PK evaluation
- Format: in vivo
- assay-conditions: SD rats, IV 1 mg/kg, n = 3
State the answer as a number, implicitly in L/kg.

// worked examples, Vz_obs iv (apparent distribution volume) included
>  <molecular-string>
COc1cc2nccc(Oc3ncc(NC(=O)c4nn(C(C)C)cc(-c5ccc(F)cc5)c4=O)cn3)c2cc1OC

>  <units-text>
L/kg

>  <Vz_obs iv (apparent distribution volume)>
0.15

$$$$
>  <molecular-string>
COc1cc2nccc(Oc3ccc(NC(=O)c4cn(C(C)C)nc(-c5ccc(F)cc5)c4=O)nc3)c2cc1OC

>  <units-text>
L/kg

>  <Vz_obs iv (apparent distribution volume)>
6.81

$$$$
>  <molecular-string>
COc1cc2nccc(Oc3cnc(NC(=O)c4cn(C(C)C)nc(-c5ccc(F)cc5)c4=O)nc3)c2cc1OC

>  <units-text>
L/kg

>  <Vz_obs iv (apparent distribution volume)>
1.21

$$$$

The reported Vz_obs iv (apparent distribution volume) of the compound COc1cc2nccc(Oc3ccc(NC(=O)c4cn(C(C)C)nc(-c5ccc(F)cc5)c4=O)cn3)c2cc1OC was 3.32

The reported Vz_obs iv (apparent distribution volume) of the compound COc1cc2nccc(Oc3ccc(NC(=O)c4nn(C(C)C)cc(-c5ccc(F)cc5)c4=O)nc3)c2cc1OC was 1.23

The reported Vz_obs iv (apparent distribution volume) of the compound COc1cc2nccc(Oc3cnc(NC(=O)c4cn(C5CC5)cc(-c5ccc(F)cc5)c4=O)nc3)c2cc1OC was 0.23

The reported Vz_obs iv (apparent distribution volume) of the compound COc1cc2nccc(Oc3ccc(NC(=O)c4cn(C5CC5)cc(-c5ccc(F)cc5)c4=O)nc3)c2cc1OC was 0.30

The reported Vz_obs iv (apparent distribution volume) of the compound COc1cc2nccc(Oc3cnc(NC(=O)c4nn(C(C)C)cc(-c5ccc(F)cc5)c4=O)nc3)c2cc1OC was 0.12

----------
- method-description: Stability in liver microsome of mice
- Type: in vitro ADME
- assay-conditions: liver microsomes; Mouse liver microsome 0.5 mg protein/mL, compound 1 μM, 37° C.
The reader will find reported microsomal CLint at 1 μM values listed item by item below.
State the answer as a number, implicitly in µL/min/mg.

>  <molecular-string>
COc1cc2nccc(Oc3cnc(NC(=O)c4cn(C(C)C)cc(-c5ccc(F)cc5)c4=O)nc3)c2cc1OC

>  <microsomal CLint at 1 μM / µL/min/mg>
4.2

$$$$
>  <molecular-string>
COc1cc2nccc(Oc3ncc(NC(=O)c4nn(C(C)C)cc(-c5ccc(F)cc5)c4=O)cn3)c2cc1OC

>  <microsomal CLint at 1 μM / µL/min/mg>
5

$$$$
>  <molecular-string>
COc1cc2nccc(Oc3ccc(NC(=O)c4cn(C(C)C)cc(-c5ccc(C)cc5)c4=O)nc3)c2cc1OC

>  <microsomal CLint at 1 μM / µL/min/mg>
18.2

$$$$
>  <molecular-string>
COc1cc2nccc(Oc3ccc(NC(=O)c4cn(C5CC5)cc(-c5ccc(F)cc5)c4=O)nc3)c2cc1OC

>  <microsomal CLint at 1 μM / µL/min/mg>
26

$$$$
>  <molecular-string>
COc1cc2nccc(Oc3cnc(NC(=O)c4nn(C5CC5)cc(-c5ccc(F)cc5)c4=O)nc3)c2cc1OC

>  <microsomal CLint at 1 μM / µL/min/mg>
8.4

$$$$

The reported microsomal CLint at 1 μM of the molecule COc1cc2nccc(Oc3ccc(NC(=O)c4nn(C5CC5)cc(-c5ccc(F)cc5)c4=O)nc3)c2cc1OC was 1.6

The reported microsomal CLint at 1 μM of the molecule COc1cc2nccc(Oc3ccc(NC(=O)c4nn(C5CC5)cc(-c5ccc(F)cc5)c4=O)cn3)c2cc1OC was 4.6

----------
The reader will find reported IC50 values listed item by item below.
- assay-target: UniProtKB P04629
- Sequence (P04629 33-796): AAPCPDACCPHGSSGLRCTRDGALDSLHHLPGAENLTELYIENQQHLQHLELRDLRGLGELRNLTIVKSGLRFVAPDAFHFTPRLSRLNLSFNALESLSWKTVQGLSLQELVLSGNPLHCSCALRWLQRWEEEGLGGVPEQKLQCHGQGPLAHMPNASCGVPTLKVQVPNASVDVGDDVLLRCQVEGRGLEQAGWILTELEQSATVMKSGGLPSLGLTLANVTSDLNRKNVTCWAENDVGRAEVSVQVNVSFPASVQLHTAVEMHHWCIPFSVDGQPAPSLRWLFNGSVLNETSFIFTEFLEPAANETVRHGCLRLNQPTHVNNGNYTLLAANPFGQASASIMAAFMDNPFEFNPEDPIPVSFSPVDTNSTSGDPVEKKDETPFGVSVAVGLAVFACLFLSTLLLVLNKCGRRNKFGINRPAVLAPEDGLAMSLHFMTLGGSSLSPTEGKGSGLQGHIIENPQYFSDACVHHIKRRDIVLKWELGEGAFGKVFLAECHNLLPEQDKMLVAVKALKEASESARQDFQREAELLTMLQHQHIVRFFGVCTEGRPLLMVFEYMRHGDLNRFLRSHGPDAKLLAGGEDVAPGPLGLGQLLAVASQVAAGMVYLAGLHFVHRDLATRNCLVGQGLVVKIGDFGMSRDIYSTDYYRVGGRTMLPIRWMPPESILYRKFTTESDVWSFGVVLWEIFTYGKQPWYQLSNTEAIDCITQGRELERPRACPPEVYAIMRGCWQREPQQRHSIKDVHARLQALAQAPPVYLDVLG
State the answer as a number, implicitly in nM.

// worked examples, IC50 included
>  <molecular-string>
COc1cc2nccc(Oc3ccc(NC(=O)c4cn(C(C)C)nc(-c5ccc(F)cc5)c4=O)cn3)c2cc1OC

>  <IC50, nM>
11

$$$$
>  <molecular-string>
COc1cc2nccc(Oc3ncc(NC(=O)c4nn(C5CC5)cc(-c5ccc(F)cc5)c4=O)cn3)c2cc1OC

>  <IC50, nM>
7

$$$$
>  <molecular-string>
COc1cc2nccc(Oc3ccc(NC(=O)c4nn(C(C)C)cc(-c5ccc(F)cc5)c4=O)nc3)c2cc1OC

>  <IC50, nM>
6

$$$$

Please find the next compound below.
Kindly note: UniProtKB P04629, COc1cc2nccc(Oc3ccc(NC(=O)c4nn(C5CC5)cc(-c5ccc(F)cc5)c4=O)cn3)c2cc1OC , IC50 value reported: 2
